Tested on: barnyardgrass
assay procedure: Test C flooded paddy test
Type: in vivo, Echinochloa crus-galli
condition description: Flood, 125 g ai/ha; scale 0 to 100, 0 no effect, 100 complete control; 13 to 15 days
attribute measured: Plant response rating, Barnyardgrass
Answers are plain numbers.

See these solved cases before continuing.
>>> df
                                   compound  recorded_result
0  CC(c1c(C(F)(F)F)nn(C)c1OC(F)F)S(=O)(=O)c1ccc(Br)c[n+]1[O-] (racemic) [Compound 23]               60
1  CC(c1c(C(F)(F)F)nn(C)c1Cl)S(=O)(=O)c1ccc(Cl)c[n+]1[O-] (racemic) [Compound 40]               60
2  Cn1nc(C(F)(F)F)c(C(Cl)S(=O)(=O)c2ccc(Cl)c[n+]2[O-])c1Cl (racemic) [Compound 21]                0
3  CC(C)c1cc[n+]([O-])c([S+]([O-])Cc2c(C(F)(F)F)nn(C)c2OC(F)F)c1 (stereo not drawn) [Compound 109]               20
4  Cn1nc(C(F)(F)F)c(C[S+]([O-])c2ccc(Br)c[n+]2[O-])c1OC(F)F (racemic) [Compound 16]                0

Prompt: For the compound Cc1cc[n+]([O-])c(S(=O)(=O)C(Cl)c2c(C(F)(F)F)nn(C)c2Cl)c1 (racemic) [Compound 22] , what Plant response rating, Barnyardgrass is on record?
Response: 80
